target-entity: Gag-Pol polyprotein (Human immunodeficiency virus type 1 group M subtype B (isolate HXB2))
test-method-notes: HIV-1 RT RNase H inhibitors, primary screen, biochemical, fluorescence (AID 565)
study-conditions: RT-RNase H RNA/DNA duplex cleavage, at 10 µM, stronger effect = higher value
The whole screen tested about 65,000 compounds, of which about 1,200 (1.8%) were called active. This excerpt belongs to a sample that is enriched for actives.
The following compounds are listed with their measured inhibition values.
readout-kind: inhibition (%)

> print(dat)
                                    compound  experimental.value
 1           COc1ccc(Cl)cc1NC(=O)c1oc(C)nc1C                12.9
 2      CCN(CC)C(=O)CSc1nnc(-c2cccc(OC)c2)o1               -4.72
 3  O=C(CN1CCN(CC(=O)Nc2ccc3c(c2)OCO3)CC1)Nc1ccc(F)cc1               -10.3
 4   CCOC(=O)C1CCN(Cc2coc3ccc(Cl)cc3c2=O)CC1                2.73
 5           Cc1nc(C)c(C(=O)Nc2cccc(C)c2C)o1                52.9
 6                  COC(=O)Cc1nc2ccccc2[nH]1               -25.6
 7  O=C(Nc1ccc2c(c1)OCCO2)C1CCCN(c2ncccn2)C1 (configuration not stated)                7.08
 8              Oc1ccc2nc(Cc3ccccc3)[nH]c2c1               -7.13
 9  Cc1cccc(NC(=O)C2CCCN2S(=O)(=O)c2ccc(F)cc2)c1C (configuration not stated)               -5.03
10                O=P(O)(CN1CCCCC1)CN1CCCCC1               -5.45
11  O=C(Nc1ccc(-c2nnc(-c3ccccc3)o2)cc1)c1ccc(Br)o1               -4.57
12                Fc1ccccc1OCCSc1nc2ccccc2o1               -31.7
